Target: natural β-amyloid peptide β-AP1-40 (human)
Sequence (peptide, as listed by the source): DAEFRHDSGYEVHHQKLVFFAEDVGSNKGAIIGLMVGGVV
Assay: cell-based or functional assay
Square brackets hold non-standard residues; d marks the D form. Primed or numbered codes have the meaning given here. * marks the point of attachment. Aic′ = 3-(O-aminoethyl-iso)-cholyl, C[C@H](CCC(=O)*)[C@H]1CC[C@H]2[C@@H]3[C@H](O)C[C@@H]4C[C@@H](OCCN)CC[C@]4(C)[C@H]3C[C@H](O)[C@]12C; Cholyl = C[C@H](CCC(=O)*)[C@H]1CC[C@H]2[C@@H]3[C@H](O)C[C@@H]4C[C@H](O)CC[C@]4(C)[C@H]3C[C@H](O)[C@]12C

# BINDER, VALUE_UNITS, LIMIT_QUALIFIER, ΔLag; nucleation assay; 33 mole %
measured = [
    ("Cholyl-LVFFK-OH (SMILES CC(C)C[C@H](NC(=O)CC[C@@H](C)[C@H]1CC[C@H]2[C@@H]3[C@H](O)C[C@@H]4C[C@H](O)CC[C@]4(C)[C@H]3C[C@H](O)[C@]12C)C(=O)N[C@H](C(=O)N[C@@H](Cc1ccccc1)C(=O)N[C@@H](Cc1ccccc1)C(=O)N[C@@H](CCCCN)C(=O)O)C(C)C) [CA-LVFFK-oh]", "ratio", ">", 5),
    ("H-[Aic′]LVFFA-OH (SMILES CC(C)C[C@H](NC(=O)CC[C@@H](C)[C@H]1CC[C@H]2[C@@H]3[C@H](O)C[C@@H]4C[C@@H](OCCN)CC[C@]4(C)[C@H]3C[C@H](O)[C@]12C)C(=O)N[C@H](C(=O)N[C@@H](Cc1ccccc1)C(=O)N[C@@H](Cc1ccccc1)C(=O)N[C@@H](C)C(=O)O)C(C)C) [h-(Aic)-LVFFA-oh]", "ratio", ">", 5),
    ("Cholyl-HQKLVFF-OH (SMILES CC(C)C[C@H](NC(=O)[C@H](CCCCN)NC(=O)[C@H](CCC(N)=O)NC(=O)[C@H](Cc1c[nH]cn1)NC(=O)CC[C@@H](C)[C@H]1CC[C@H]2[C@@H]3[C@H](O)C[C@@H]4C[C@H](O)CC[C@]4(C)[C@H]3C[C@H](O)[C@]12C)C(=O)N[C@H](C(=O)N[C@@H](Cc1ccccc1)C(=O)N[C@@H](Cc1ccccc1)C(=O)O)C(C)C) [cholyl-Aβ14-20]", "ratio", "=", 2),
    ("Cholyl-HQKLVFF-NH2 [CA-HQKLVFF-nh2]", "ratio", "=", 1.1),
    ("Cholyl-LVFF-OH [CA-LVFF-oh]", "ratio", "=", 1.8),
]
